# test-system: Prostaglandin G/H synthase 2 (Homo sapiens)
# Sequence (P35354 whole entry): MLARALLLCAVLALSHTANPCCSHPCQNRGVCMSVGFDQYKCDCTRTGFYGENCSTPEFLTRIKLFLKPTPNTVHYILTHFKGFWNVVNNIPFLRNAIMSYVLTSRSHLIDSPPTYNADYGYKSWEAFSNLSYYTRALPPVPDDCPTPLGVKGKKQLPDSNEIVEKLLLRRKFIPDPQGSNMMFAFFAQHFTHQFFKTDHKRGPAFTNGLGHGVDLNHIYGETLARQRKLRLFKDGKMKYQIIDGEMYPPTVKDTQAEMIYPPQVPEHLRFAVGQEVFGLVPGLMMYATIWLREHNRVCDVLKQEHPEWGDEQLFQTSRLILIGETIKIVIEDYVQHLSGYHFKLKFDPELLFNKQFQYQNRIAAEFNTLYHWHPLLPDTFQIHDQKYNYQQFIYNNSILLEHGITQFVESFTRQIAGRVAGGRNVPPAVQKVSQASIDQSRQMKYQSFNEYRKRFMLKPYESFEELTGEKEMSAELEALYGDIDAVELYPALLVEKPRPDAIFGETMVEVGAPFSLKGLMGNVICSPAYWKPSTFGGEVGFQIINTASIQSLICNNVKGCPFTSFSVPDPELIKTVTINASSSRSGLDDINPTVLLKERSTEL
# study-conditions: read-out: IC50
Listed here: items and their measured IC50.
Write it as a number; the unit nM goes unstated.

Some entries whose results are on file:
CS(=O)(=O)c1ccc(-c2[nH]c3ccc(Cl)cc3c2-c2cccc(Cl)c2)cc1 : 0.8
Cc1ccc(-c2c(-c3ccc(S(C)(=O)=O)cc3)[nH]c3ccccc23)cc1C : 0.17
NS(=O)(=O)c1ccc(-c2[nH]c3ccc(F)cc3c2-c2ccccc2)cc1 : 2
CS(=O)(=O)c1ccc(-c2[nH]c3ccc(F)cc3c2-c2ccccc2)cc1 : 5
CS(=O)(=O)c1ccc(-c2[nH]c3ccc(Cl)cc3c2-c2ccc(Cl)cc2)cc1 : 85.1

The value of IC50 measured for the molecule CS(=O)(=O)c1ccc(-c2[nH]c3ccc(Cl)cc3c2-c2ccccc2Cl)cc1 turned out to be 10

# IC50 of NS(=O)(=O)c1ccc(-c2[nH]c3ccc(Cl)cc3c2-c2cccc(Cl)c2)cc1 = 3.13

IC50 reported for this molecule NS(=O)(=O)c1ccc(-c2[nH]c3ccc(Br)cc3c2-c2ccccc2)cc1 : 5

Reference source for all entries: ChEMBL document CHEMBL1156674
